B1: HEEH_KT_rd6_0007 (parent)
chain: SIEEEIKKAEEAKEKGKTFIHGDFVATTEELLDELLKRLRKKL

Variants of: B1
assayProtocol: folding stability dG (cDNA display proteolysis); higher = more stable
condition: PBS, room temperature
Label rule, in plain words: folding stability dG of 0.9 kcal/mol and up is 1 (yes), under 0.9 kcal/mol is 0 (no).

H21T: 1 (yes)
E30A: 1 (yes)
D23E: 1 (yes)
V25R: 0 (no)

# input for lookup
Task: # bool: folding stability dG of E30C >= 0.9 kcal/mol
Output: 1 (yes)

This collection of values is drawn from the MegaScale stability set (Tsuboyama et al. 2023).
